The reported numbers originate from paper PMC9482650.

test system: ARHGEF12, Q9NZN5-2
Sequence (Q9NZN5 other isoform, or with tags, fused parts or gaps): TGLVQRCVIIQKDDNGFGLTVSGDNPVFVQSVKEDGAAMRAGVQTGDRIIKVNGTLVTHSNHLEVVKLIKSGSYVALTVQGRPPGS
assay info: holdup assay
Parameters: key: below the threshold = too weak to quantify, mostly under pKd 3.1 to 4
reported conditions: plain residues with an end cap or a label only (N-terminal biotin on a linker: ado-ado)
assay metric: pKd

RGKNRRQSIF [CDK18, Q07002]	below the threshold
RSPVATATSC [DUSP5, Q16690]	4.26
GNDPDRGTSI [GRID2, O43424]	below the threshold
DFKHTKSFII [JAM2, P57087]	below the threshold
FVFESRKEIL [TBPL1, P62380]	below the threshold
KEKASTETEC [TRPM1, Q7Z4N2]	3.58

Notebook: KKTPVSRSHL [SLC22A3, O75751] , pKd read as 4.2

Per the records, this binder ( LPPPESESKV [KCNJ9, Q92806] ) has pKd equal to below the threshold

The recorded pKd for GDSSRKEYFI [GYPC, P04921] is below the threshold

Record summary for PSDSVGKDVF [EGLN1, Q9GZT9] : reported pKd = below the threshold

KIEDVEITLV [FCHSD2, O94868] has a reported pKd of 3.85

Given item THREVKFTSL [CD46, P15529] , the value recorded as its pKd is 5.37

The binder listed as PSVYSRSQYV [CLDN8, P56748] has a reported pKd of 4.19

The value of pKd measured for the binder PKSNSSKEYV [CLDN7, O95471] turned out to be below the threshold

The measured pKd associated with HYPASPDSWV [CTNND2, Q9UQB3] reads below the threshold

Consider EFKQTSSFLV [JAM1, Q9Y624] . Its measured pKd is below the threshold
